System: protease from Conidiobolus brefeldianus MTCC 5185
Method: Stability of protease in presence of organic solvents at 37° C.
Format: physicochemical
Experimental conditions: 20% (v/v) solvent, pH 7, 120 min
Procedure: This example illustrates the effect of water miscible as well as water immiscible organic solvents on stability of crude protease at 37° C. […] Samples were removed at different time intervals and residual activity was estimated. Sample without organic solvent served as control.
Measurement label: Residual Activity (%) of protease, 120 min

Compound: CC#N
Target desc: protease from Conidiobolus brefeldianus MTCC 5185
Observed result: 17.52

Compound: CC(C)O
Target desc: protease from Conidiobolus brefeldianus MTCC 5185
Observed result: 18.73

Compound: CC(C)=O
Target desc: protease from Conidiobolus brefeldianus MTCC 5185
Observed result: 60.57

Compound: C[S+](C)[O-] [DMSO, dimethylsulphoxide]
Target desc: protease from Conidiobolus brefeldianus MTCC 5185
Observed result: 48.70

Compound: CO
Target desc: protease from Conidiobolus brefeldianus MTCC 5185
Observed result: 48.36

---

Tested on: protease from Conidiobolus brefeldianus MTCC 5185
Method: Stability of protease in presence of organic solvents at 37° C.
Type: physicochemical
Experimental conditions: 20% (v/v) solvent, pH 7, 30 min
# note: exactly 60% is not below, so it is -1; use 1 for Residual Activity (%) of protease, 30 min strictly under it

Molecule: C[S+](C)[O-] [DMSO, dimethylsulphoxide]
Target desc: protease from Conidiobolus brefeldianus MTCC 5185
Category: -1
//
Molecule: CC(C)=O [Acetone, acetone]
Target desc: protease from Conidiobolus brefeldianus MTCC 5185
Category: -1
//
Molecule: CC#N [Acetonitrile, acetonitrile]
Target desc: protease from Conidiobolus brefeldianus MTCC 5185
Category: 1
//
Molecule: CC(C)O [Isopropanol, isopropanol]
Target desc: protease from Conidiobolus brefeldianus MTCC 5185
Category: 1

---

Tested on: protease from Conidiobolus brefeldianus MTCC 5185
Method: Stability of protease at 50° C. in presence of sugar alcohols
Format: physicochemical
Set-up: unit not given here
Experimental conditions: 20% sugar alcohol, 90 min
Protocol: Ultrafiltered protease as described in example 27 was incubated at 50° C. in presence of glycerol, mannitol, sorbitol and xylitol at 20% concentration up to 3 h. Aliquots were removed at regular intervals of 30 min and residual activity was estimated at 50° C., pH 9.

Compound: OC[C@@H](O)[C@@H](O)[C@H](O)[C@@H](O)CO [sorbitol]
residual activity of protease at 50° C.: 62.31

Compound: OCC(O)CO [glycerol]
residual activity of protease at 50° C.: 49.08

Compound: OC[C@@H](O)[C@H](O)[C@@H](O)CO [xylitol]
residual activity of protease at 50° C.: 52.42

Compound: OC[C@@H](O)[C@@H](O)[C@H](O)[C@H](O)CO [Mannitol, mannitol]
residual activity of protease at 50° C.: 58.13

---

Tested on: protease from Conidiobolus brefeldianus MTCC 5185
Method: Stability of protease in presence of organic solvents at 37° C.
Assay type: physicochemical
Experimental conditions: 20% (v/v) solvent, pH 7, 60 min
# key: entry, value: Residual Activity (%) of protease, 60 min
Measurement label: Residual Activity (%) of protease, 60 min

Compound: CC(C)O
Observed result: 34.35%
//
Compound: C[S+](C)[O-] [DMSO, dimethylsulphoxide]
Observed result: 68.94%
//
Compound: CC(C)=O
Observed result: 81.10%
//
Compound: CC#N
Observed result: 36.40%
//
Compound: CO
Observed result: 59.45%

---

Tested on: protease from Conidiobolus brefeldianus MTCC 5185
Method: Stability of protease at 50° C. in presence of sugar alcohols
Format: physicochemical
Design: unit not given here
Experimental conditions: 20% sugar alcohol, 30 min
# key: entry, value: residual activity of protease at 50° C.

Given smiles: OC[C@@H](O)[C@@H](O)[C@H](O)[C@@H](O)CO
residual activity of protease at 50° C.: 84.01

Given smiles: OCC(O)CO
residual activity of protease at 50° C.: 74.68

Given smiles: OC[C@@H](O)[C@H](O)[C@@H](O)CO
residual activity of protease at 50° C.: 76.31

Given smiles: OC[C@@H](O)[C@@H](O)[C@H](O)[C@H](O)CO
residual activity of protease at 50° C.: 74.06

---

# key: entry, value: residual activity of protease at 50° C.
Test system: protease from Conidiobolus brefeldianus MTCC 5185
Method: Stability of protease at 50° C. in presence of sugar alcohols
Type: physicochemical
Parameters: unit not given here
Experimental conditions: 20% sugar alcohol, 120 min
Measurement label: residual activity of protease at 50° C.

Given smiles: OC[C@@H](O)[C@@H](O)[C@H](O)[C@H](O)CO
Measurement label: residual activity of protease at 50° C.
Observed result: 48.66

Given smiles: OCC(O)CO
Measurement label: residual activity of protease at 50° C.
Observed result: 36.97

Given smiles: OC[C@@H](O)[C@H](O)[C@@H](O)CO
Measurement label: residual activity of protease at 50° C.
Observed result: 44.61

Given smiles: OC[C@@H](O)[C@@H](O)[C@H](O)[C@@H](O)CO
Measurement label: residual activity of protease at 50° C.
Observed result: 51.57

---

Tested on: protease from Conidiobolus brefeldianus MTCC 5185
Method: Stability of protease in presence of organic solvents at 37° C.
Format: physicochemical
Experimental conditions: 20% (v/v) solvent, pH 7, 240 min
# note: exactly 20% is not below, so it is NO; use YES for Residual Activity (%) of protease, 240 min strictly under it

Molecule: CC(C)=O [Acetone, acetone]
Target desc: protease from Conidiobolus brefeldianus MTCC 5185
Category: NO
//
Molecule: CC#N [Acetonitrile, acetonitrile]
Target desc: protease from Conidiobolus brefeldianus MTCC 5185
Category: YES
//
Molecule: CO [Methanol, methanol]
Target desc: protease from Conidiobolus brefeldianus MTCC 5185
Category: YES
//
Molecule: C[S+](C)[O-] [DMSO, dimethylsulphoxide]
Target desc: protease from Conidiobolus brefeldianus MTCC 5185
Category: NO
//
Molecule: CC(C)O [Isopropanol, isopropanol]
Target desc: protease from Conidiobolus brefeldianus MTCC 5185
Category: YES

---

System: protease from Conidiobolus brefeldianus MTCC 5185
Method: Stability of protease at 50° C. in presence of sugar alcohols
Assay type: physicochemical
Design: unit not given here
Experimental conditions: 20% sugar alcohol, 60 min

Molecule: OCC(O)CO [glycerol]
Target desc: protease from Conidiobolus brefeldianus MTCC 5185
residual activity of protease at 50° C.: 62.01
//
Molecule: OC[C@@H](O)[C@@H](O)[C@H](O)[C@H](O)CO [Mannitol, mannitol]
Target desc: protease from Conidiobolus brefeldianus MTCC 5185
residual activity of protease at 50° C.: 64.42
//
Molecule: OC[C@@H](O)[C@@H](O)[C@H](O)[C@@H](O)CO [sorbitol]
Target desc: protease from Conidiobolus brefeldianus MTCC 5185
residual activity of protease at 50° C.: 70.66
//
Molecule: OC[C@@H](O)[C@H](O)[C@@H](O)CO [xylitol]
Target desc: protease from Conidiobolus brefeldianus MTCC 5185
residual activity of protease at 50° C.: 63.36

---

Tested on: protease secreted by Conidiobolus brefeldianus MTCC 5185
Method: Effect of metals on protease activity
Format: biochemical
Experimental conditions: metal 5 mM in assay mixture, crude protease
Measurement label: Relative Activity (%) of protease

Given smiles: O=S(=O)([O-])[O-].[Mg+2]
Observed result: 135.87
//
Given smiles: [Cl][Cu][Cl]
Observed result: 12.78
//
Given smiles: [Cl-].[Cl-].[Zn+2]
Observed result: 60.27
//
Given smiles: [Cl][Cd][Cl]
Observed result: 114.30
//
Given smiles: [Cl][Ni][Cl]
Observed result: 65.60
//
Given smiles: O=S(=O)([O-])[O-].[Zn+2]
Observed result: 58.03
//
Given smiles: [Cl][Hg][Cl]
Observed result: 3.27
//
Given smiles: O=S(=O)([O-])[O-].[Mn+2]
Observed result: 108.39
//
Given smiles: [Cl-].[Cl-].[Mg+2]
Observed result: 132.24
//
Given smiles: [Cl-].[K+]
Observed result: 158.50
//
Given smiles: [Cl][Mn][Cl]
Observed result: 104.49

The values you see were collected from patent US20130115671A1.
